Origin of measurements: paper PMC7954794

B1: S. cerevisiae Abp1 (full length; SH3 domain 535-592 mutated) / Hua2 (parent)
chain 1: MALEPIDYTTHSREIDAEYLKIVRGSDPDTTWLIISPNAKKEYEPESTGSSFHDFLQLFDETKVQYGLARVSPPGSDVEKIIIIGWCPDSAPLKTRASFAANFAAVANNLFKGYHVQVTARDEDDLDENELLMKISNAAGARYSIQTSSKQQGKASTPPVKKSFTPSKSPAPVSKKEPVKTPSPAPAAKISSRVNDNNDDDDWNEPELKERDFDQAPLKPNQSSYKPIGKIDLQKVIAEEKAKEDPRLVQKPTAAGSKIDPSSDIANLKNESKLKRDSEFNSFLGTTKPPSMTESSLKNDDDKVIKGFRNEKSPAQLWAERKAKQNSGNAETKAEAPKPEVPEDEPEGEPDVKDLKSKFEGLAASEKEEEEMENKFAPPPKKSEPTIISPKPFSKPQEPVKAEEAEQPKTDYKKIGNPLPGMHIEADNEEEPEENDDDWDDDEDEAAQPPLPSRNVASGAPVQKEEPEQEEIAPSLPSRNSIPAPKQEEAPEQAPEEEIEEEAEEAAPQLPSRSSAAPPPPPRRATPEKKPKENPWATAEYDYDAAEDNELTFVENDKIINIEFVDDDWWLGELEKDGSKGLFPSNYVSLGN
chain 2: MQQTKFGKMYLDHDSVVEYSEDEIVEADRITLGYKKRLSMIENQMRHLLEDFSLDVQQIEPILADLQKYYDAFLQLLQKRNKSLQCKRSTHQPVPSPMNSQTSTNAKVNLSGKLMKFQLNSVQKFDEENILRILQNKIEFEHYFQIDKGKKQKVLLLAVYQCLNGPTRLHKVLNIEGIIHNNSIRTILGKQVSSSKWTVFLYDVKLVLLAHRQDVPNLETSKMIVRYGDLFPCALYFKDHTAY

Variants of: B1
methodSummary: DHFR protein-fragment complementation in yeast (Abp1-DHFR F[1,2] x partner-DHFR F[3]), deep mutational scanning, second methotrexate selection vs reference
runParameters: with Hua2; S. cerevisiae, DHFR-PCA selection in liquid with methotrexate at 30 C, two 72 h selections (the score uses the second); reference = the pre-selection culture; not an affinity; value at the no-binding floor (a bound); scale: DMS score: mean over two replicates of log2(f_test/f_ref + 0.5)/ln 2, minus the synonymous-codon median
measuredMetric: screen value

{"mut": "chain 1 E550S", "screen value": "< -3.06"}
{"mut": "chain 1 L551Y", "screen value": "< -3.06"}
{"mut": "chain 1 P584W", "screen value": -3.02}
{"mut": "chain 1 L574D", "screen value": "< -3.06"}
{"mut": "chain 1 D577F", "screen value": -2.98}
{"mut": "chain 1 G581Y", "screen value": "< -3.06"}
{"mut": "chain 1 A539W", "screen value": -3.01}
{"mut": "chain 1 I562H", "screen value": "< -3.06"}

Query: Dear colleague, I am looking for the recorded screen value of the following variant: chain 1 P584V
Response: < -3.06

Query: Also chain 1 D577P , if possible.
Response: < -3.06

Query: Also chain 1 S585Y , if possible.
Response: < -3.06

Query: Also chain 1 G572L , if possible.
Response: -3.04

Query: Also chain 1 T552W , if possible.
Response: < -3.06

Query: Also chain 1 G572S , if possible.
Response: < -3.06

Query: Also chain 1 G578P , if possible.
Response: < -3.06

Query: Also chain 1 I562K , if possible.
Response: -3.03

Query: Also chain 1 A537H , if possible.
Response: < -3.06

Query: Also chain 1 Y543P , if possible.
Response: < -3.06

Query: Also chain 1 P584M , if possible.
Response: < -3.06

Query: Also chain 1 L551A , if possible.
Response: -3.04

Query: Also chain 1 V588K , if possible.
Response: -3.04

Query: Also chain 1 W570A , if possible.
Response: < -3.06
